test system: NK cells; assay: NK cell activation receptor (NKp30, NKp44, NKp46) and perforin expression by FACS; type: cell-based, human; details: NK cells proliferated 21 days, 10 mg/L in NK medium
MEASUREMENT_KIND: NKp30 expression (%)
Reply with just the number (in %).

Return NKp30 expression measured with NK cells given this sequence: VSGHGQHGVH (engineered from known peptides) [Alloferon 4]
61.1

Return NKp30 expression measured with NK cells given this sequence: SGHGQHGV (engineered from known peptides) [Alloferon 3]
47.8

Return NKp30 expression measured with NK cells given this sequence: GVSGHGQHGVHG (engineered from known peptides) [Alloferon 2]
53.2

Return NKp30 expression measured with NK cells given this sequence: HGVSGHGQHGVHG (engineered from known peptides) [Alloferon 1]
57.4

* * *

Can you tell me Perforin expression for the items I'm about to list?
tested on: NK cells; assay: NK cell activation receptor (NKp30, NKp44, NKp46) and perforin expression by FACS; type: cell-based, human; settings: NK cells proliferated 21 days, 10 mg/L in NK medium
Reply with just the number (in %).

Return Perforin expression measured with NK cells given this sequence: HGVSGHGQHGVHG (engineered from known peptides) [Alloferon 1]
99.8

Return Perforin expression measured with NK cells given this sequence: VSGHGQHGVH (engineered from known peptides) [Alloferon 4]
99.8

Return Perforin expression measured with NK cells given this sequence: GVSGHGQHGVHG (engineered from known peptides) [Alloferon 2]
99.9

Return Perforin expression measured with NK cells given this sequence: SGHGQHGV (engineered from known peptides) [Alloferon 3]
90.4

* * *

test system: NK cells; experiment: NK cell increase rate by flow cytometry (FACS, CD3-FITC/CD56-PE); assay type: cell-based, human; settings: 10 mg/L in NK cell culture medium of Example 1, 21 days
Can you tell me NK (share of cells by FACS), Table 3 for the items I'm about to list?
Reply with just the number (in %).

Looking for the measured NK (share of cells by FACS), Table 3 of SGHGQHGV (engineered from known peptides) [Alloferon 3] , can you help?
69.7

Looking for the measured NK (share of cells by FACS), Table 3 of HGVSGHGQHGVHG (engineered from known peptides) [Alloferon 1] , can you help?
74.7

Looking for the measured NK (share of cells by FACS), Table 3 of GVSGHGQHGVHG (engineered from known peptides) [Alloferon 2] , can you help?
73.8

Looking for the measured NK (share of cells by FACS), Table 3 of VSGHGQHGVH (engineered from known peptides) [Alloferon 4] , can you help?
71.5

* * *

Can you tell me IFN-r, Table 6 for the items I'm about to list?
System: NK cells
Experiment: IFN-gamma secretion of NK cells (Human IFN-y ELISA)
Type: cell-based
Settings: alloferon 100 mg/L, with IL-2 10 mg/L in typical medium, 48 hours
Procedure: IFN-r is an indicator of the activity of NK cells, and it is considered as the secretion amount is higher, the cytotoxicity is higher and the differentiation ability increases. IFN-y secreted from NK cells was measured in the culture medium in which the cells were cultured, using a Human IFN-y ELISA kit (BD Biosciences, San Diego, CA, USA). […] 50 μl of Stop solution was added to each well, and the absorbance was measured at 450 nm within 30 minutes.
Reply with just the number (in µg/L).

Looking for the measured IFN-r, Table 6 of HGVSGHGQHGVHG (engineered from known peptides) [Alloferon 1] , can you help?
6.32

Looking for the measured IFN-r, Table 6 of GVSGHGQHGVHG (engineered from known peptides) [Alloferon 2] , can you help?
4.87

Looking for the measured IFN-r, Table 6 of SGHGQHGV (engineered from known peptides) [Alloferon 3] , can you help?
3.31

Looking for the measured IFN-r, Table 6 of VSGHGQHGVH (engineered from known peptides) [Alloferon 4] , can you help?
5.84

This collection of values is drawn from patent US20250109381A1.
